- Test system: SW-620 colon
- method-summary: NCI-60 one-dose screen, 48 h
- condition-context: 10 µM unless noted
Compounds without any hit were thinned out: in the full panel of roughly 83,000, 20% have a hit. Active and inactive are the calls of the source. Rule for the calls: active = growth percent below 10; inactive = the rest.
Respond with a class label; see active, inactive

Examples with answers:
>>> label("COC(=O)[C@]12CC[C@@H](C)[C@H](C)[C@@H]1C1=CC[C@@H]3[C@@]4(C)C=C(O)C(=O)C(C)=C4CC[C@@]3(C)[C@]1(C)CC2")
"inactive"
>>> label("O=C1C(=O)N(CCCCn2cc(-c3ccccc3)nn2)c2ccccc21")
"inactive"
>>> label("COc1ccc2c3c(c4ccccc4cc13)C(=O)N(CCN(C)CCN)C2=O")
"active"
>>> label("COC(=O)[C@]12CC[C@@H](C)[C@H](C)[C@@H]1C1=CC[C@@H]3[C@@]4(C)C[C@@H](OC(C)=O)[C@H](O)[C@@](C)(CO)[C@@H]4[C@H](O)C[C@@]3(C)[C@]1(C)CC2")
"active"

I would be grateful if you could indicate the recorded call for Cc1ccc(/C=C(\C#N)c2cc3ccccc3n2C)cc1 .
inactive

Which result was noted for this molecule in the test: Nc1ccc(Cl)cn1
inactive

I would be grateful if you could indicate the recorded call for COc1cccc2c1C(=O)c1c(O)c3c(c(O)c1C2=O)C[C@@](O)(C(=O)CO)C[C@@H]3OC1C[C@H](N)[C@H](O)[C@H](C)O1 (stereo not given in full) .
active

How did this test come out for Nc1nc(Br)nc2c1ncn2C1CC(O)C(CO)O1 (stereo not given) ?
inactive

In this assay, the call recorded for OCC(CO)(CCl)CCl was what?
inactive

Assay result, entry Cn1cc(-c2csc(-c3c[nH]c4ccc(F)cc34)n2)c2cccnc21 — outcome?
inactive

In this assay, the call recorded for CCN(CC)C(=O)CCCCCn1c2ccccc2c2c3c(c4c5ccccc5[nH]c4c21)C(=O)N(O)C3=O was what?
inactive

How was COc1cc(-c2cc(-c3nc4cc(Cl)c(Cl)cc4[nH]3)[nH]n2)cc(OC)c1OC classified in this test?
inactive

Each molecule tested received a call. Report the one for COc1cc(-c2cc(-c3nc4ccc(F)cc4[nH]3)[nH]n2)cc(OC)c1OC .
inactive

Could you please tell me the result logged for CCSc1sc(-c2ccc(C)cc2)nc1[P+](c1ccccc1)(c1ccccc1)c1ccccc1 in this assay?
active

I would be grateful if you could indicate the recorded call for C/C(=C(/c1ccccc1)c1ccc(N2C(=O)c3cccc4c(NCc5ccccc5)ccc(c34)C2=O)cc1)c1ccccc1 .
inactive
